Tested on: Saccharomyces cerevisiae
Test: protein stability index of tFT-peptide fusion in wild type (PSI (0-1 scale)); higher = more stable (slower turnover)
Details: genetic background: wild type
Assign fulfilled whenever protein stability index does not fall below 0.3; assign not fulfilled whenever it does.

Completed entries (count: 3):
CTSCGYLFRTNN : fulfilled
AITLLMCPLLLR : fulfilled
GLYKCSVGCWFR : fulfilled

Attention now shifts to the item below.
In plain terms: is recorded protein stability index at least 0.3 for `EVTRLDAIYFRI` ? fulfilled

---

For each entry below, report its protein stability index value.
Tested on: Saccharomyces cerevisiae
Assay: protein stability index of tFT-peptide fusion (C-terminal peptide) (PSI (0-1 scale)); higher = more stable (slower turnover)
Settings: genetic background: cdc34-1; temperature: 37 C
One number for each entry.

Here are 3 sequences together with their reported answers.
LCSLPIVCCFFL : 0.513
VCLVAGVFFCLL : 0.5
RAVLRFVMVWVL : 0.499

Turning now to a further sequence:
Identify protein stability index associated with the sequence `LVGWSWRGWFVV` 0.512

---

Give measured protein stability index for each item. Keep answers brief.
Test system: Saccharomyces cerevisiae
Assay: protein stability index of tFT-peptide fusion (C-terminal peptide) (PSI (0-1 scale)); higher = more stable (slower turnover)
Conditions: genetic background: wild type; temperature: 30 C
Answers are plain numbers.

Give one value of protein stability index per listed sequence.
1. WDGWWGGAGVGE
2. IRAGRGPARVVP

[0.695, 0.707]

# return protein stability index for each item in the list
1. LGFNRRSKTRMI
2. PTGCPPGVTPCL
3. RSGREFLLSSLI

0.704
0.681
0.718

Specify reported protein stability index for the sequence shown: `PPLPPPTPLQCL` 0.696

---

System: Saccharomyces cerevisiae
Assay: protein stability index of tFT-peptide fusion (C-terminal peptide) (PSI (0-1 scale)); higher = more stable (slower turnover)
Details: genetic background: wild type; temperature: 30 C
Consider the following sequences; for each one, report its protein stability index.
Answers are plain numbers.

These solved cases illustrate the format of a correct answer.
FVPRFPGTTINS : 0.681
KAKKKRRGTSKN : 0.703
EFVGKDRWVGGL : 0.699
AYCRRPALPWRG : 0.714
PPSPPAVISAGL : 0.716
RLYGILLLSGKE : 0.683
GMGLWCLSGLFP : 0.713
SPPPPPLPPAYL : 0.681
EVCAGNFVCSLG : 0.708
PGPSVRSWHPMD : 0.69

Provide protein stability index, system Saccharomyces cerevisiae, entry `TGKQNRYVKKEK` 0.696

---

Could you please report measured protein stability index for the items listed next?
System: Saccharomyces cerevisiae
Assay: protein stability index of tFT-peptide fusion (C-terminal peptide) (PSI (0-1 scale)); higher = more stable (slower turnover)
Conditions: genetic background: cdc34-1; temperature: 37 C
Give bare numbers.

PSPFHSFYLRLI : 0.572

# map each sequence to its protein stability index
1. VSLSEVAIIVHG
2. MSRALSVLVVVA

1. 0.544
2. 0.176

Lab note: each sequence below needs its protein stability index filled in.
1. LSCCIVLLIIFV
2. VGIFKVCALVLR
3. FIGVLVYICREG
4. PPSLPPLISFSP
5. CFFLSFNVFRLF

1. 0.245
2. 0.325
3. 0.19
4. 0.7
5. 0.465

---

Exercise: state measured protein stability index for each of the sequences provided.
Test system: Saccharomyces cerevisiae
Assay: protein stability index of tFT-peptide fusion (C-terminal peptide) (PSI (0-1 scale)); higher = more stable (slower turnover)
Conditions: genetic background: wild type; temperature: 30 C
Numbers only.

PPAPPPPPPSPP : 0.659
VSVWLGSARWVG : 0.628
GWRFCVFIYVHR : 0.179
PFPSYLSPLGPS : 0.734
KFWVVLIEIKYH : 0.172

Hey, can you go through the list below and give me protein stability index for every item?
1. PLWHCFRFLSGS
2. EKCDYVIPVGLL
3. VPPKHLYPLPPP
4. KKKETKKENKKK
5. KTDVYPVSFFTC
6. PPPLPPPPPAPS
7. PSPSFPPPPLSR
8. GRRWPVPGGVSA

0.607
0.702
0.612
0.723
0.184
0.692
0.721
0.693

Batch of 6 sequences: report protein stability index for each.
1. LVTGRVASPPLG
2. TVYRQRRDAPTR
3. VMPSICTKYGVN
4. VCNFCFLPASLV
5. GGARGEDRRAYV
6. RPLPPLPRPPSP

1: 0.696; 2: 0.727; 3: 0.717; 4: 0.636; 5: 0.668; 6: 0.557

# return protein stability index for each item in the list
1. GKGREGVGEVGK
2. GRSPMGDGGFFS

0.675
0.728

Batch request: protein stability index per item, same order as input.
1. LVLVGISCVKGR
2. KNITVVKKAFDA
3. FMYRDVPFLRAP
4. TPGGPLLHSGFL
5. VGGRMGVDEGKG

1. 0.597
2. 0.654
3. 0.697
4. 0.755
5. 0.669

---

System: Saccharomyces cerevisiae
Assay: protein stability index of tFT-peptide fusion (C-terminal peptide) (PSI (0-1 scale)); higher = more stable (slower turnover)
Conditions: genetic background: wild type; temperature: 30 C
Please go through the items and note down their protein stability index.
Numbers only.

Observe how each entry below is paired with its result.
RRLATRMGPCDA : 0.682
QKVNKDTRTSEF : 0.709
DLRVSLLSHLSL : 0.679
IFRLFAFHENRG : 0.679

Fill: protein stability index (Saccharomyces cerevisiae) for this sequence `VRPYPGDDVSWR` 0.693

---

Please respond with reported protein stability index for every item in the list.
Test system: Saccharomyces cerevisiae
Assay: protein stability index of tFT-peptide fusion (C-terminal peptide) (PSI (0-1 scale)); higher = more stable (slower turnover)
Settings: genetic background: wild type; temperature: 30 C
Give bare numbers.

DKVTLLRRCKQY : 0.206
VRTFAVSCLCVC : 0.133
KKKKRVKIQKKN : 0.244

Hi there! I need protein stability index for each item below, if you can.
1. FVCWGSLILCGG
2. NFFIQFHNLLFP
3. ILRAGITYVYAV
4. VFAWSLYLRWAW

[0.181, 0.671, 0.296, 0.357]

---

Test system: Saccharomyces cerevisiae
Test: protein stability index of tFT-peptide fusion (C-terminal peptide) (PSI (0-1 scale)); higher = more stable (slower turnover)
Conditions: genetic background: das1 deletion; temperature: 37 C
Assign classes using reported protein stability index values and the ranges low interval: < 0.5; middle interval: ≥ 0.5 and < 0.6; high interval: ≥ 0.6, please.

Recorded results for 10 sequences are shown here.
GGYGAGLRSPLF : high interval
QCRLPRPPLSLP : high interval
GIVYFDQWISVS : middle interval
YVRHDKLILSFC : middle interval
CKKATILRIKSM : high interval
SPCLSWTLVLVL : low interval
ESFIKFALYIVN : high interval
VVGILVLASWDL : low interval
GLFGFASPPPPS : high interval
FCCLIGYIWYGW : middle interval

Which bin, given its protein stability index, does `ARKIGKVIPKLG` occupy? high interval

For `VVDIFLFFLFVC` , which protein stability index bin applies? low interval

Bin this entry: `FFLLLVGFSVLG` low interval

Sort `SGRFRFVLLGLV` into one of the categories. high interval

---

System: Saccharomyces cerevisiae
Test: protein stability index of tFT-peptide fusion (C-terminal peptide) (PSI (0-1 scale)); higher = more stable (slower turnover)
Settings: genetic background: wild type; temperature: 30 C
PROPERTY_MEASURED: protein stability index
One number for each entry.

Completed entries (count: 5):
PFGPRLTQRSRP : 0.697
LWSIEVEKAKQK : 0.708
GRCHRFQWSVRR : 0.681
GRLIERCSLRMT : 0.68
GRRVVRGWLVRR : 0.683

List reported protein stability index for each of these sequences:
1. LGGARWSGLPHV
2. STPDIRYFPPWC
3. SLFFGDCNLVRV
4. FWGCCGGVGPRG
5. GWRGVGVGGGVC
6. DRKWSPGSGVVD

0.707
0.706
0.717
0.709
0.689
0.696

---

Give measured protein stability index for each item. Keep answers brief.
Tested on: Saccharomyces cerevisiae
Test: protein stability index of tFT-peptide fusion (C-terminal peptide) (PSI (0-1 scale)); higher = more stable (slower turnover)
Details: genetic background: wild type; temperature: 30 C

HKGNGTDKVFVF [AIM33 C-terminal 12 aa] : 0.693
ATSTAAAADKKT [HAP2 C-terminal 12 aa] : 0.724
TGLLRGSQKTQD [RPL2A C-terminal 12 aa] : 0.672
DKLAKLLSLDIH [MSH3 C-terminal 12 aa] : 0.708
LNNLSMERSIRL [GIP3 C-terminal 12 aa] : 0.666
CICSGMLFEMDG [SIN4 C-terminal 12 aa] : 0.716

Give measured protein stability index for AKERLNPPSNRR [NIP1 C-terminal 12 aa] (Saccharomyces cerevisiae). 0.688
